- tested.target: Amyloid-beta precursor protein (Homo sapiens, UniProt P05067)
- Sequence (P05067 whole entry): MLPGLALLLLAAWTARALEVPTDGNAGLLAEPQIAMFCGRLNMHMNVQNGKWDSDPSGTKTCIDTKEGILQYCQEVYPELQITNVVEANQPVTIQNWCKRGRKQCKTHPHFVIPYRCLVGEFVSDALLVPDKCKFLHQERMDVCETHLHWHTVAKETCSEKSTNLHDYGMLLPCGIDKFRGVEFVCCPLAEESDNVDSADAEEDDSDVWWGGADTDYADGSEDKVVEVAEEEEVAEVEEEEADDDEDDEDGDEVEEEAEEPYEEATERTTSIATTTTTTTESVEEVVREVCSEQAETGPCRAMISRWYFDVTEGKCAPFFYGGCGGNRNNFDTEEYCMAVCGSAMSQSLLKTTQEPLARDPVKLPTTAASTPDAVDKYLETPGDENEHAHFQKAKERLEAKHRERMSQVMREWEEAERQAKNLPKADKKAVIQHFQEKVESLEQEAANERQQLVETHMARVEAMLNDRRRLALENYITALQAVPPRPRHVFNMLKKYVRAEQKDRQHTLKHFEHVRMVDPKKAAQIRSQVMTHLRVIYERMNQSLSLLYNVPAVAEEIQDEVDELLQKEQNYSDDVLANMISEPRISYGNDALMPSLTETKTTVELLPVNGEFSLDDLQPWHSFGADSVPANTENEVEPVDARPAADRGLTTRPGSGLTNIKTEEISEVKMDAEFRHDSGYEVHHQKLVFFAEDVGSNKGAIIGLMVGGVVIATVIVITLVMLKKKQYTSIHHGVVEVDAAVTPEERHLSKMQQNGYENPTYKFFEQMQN
- procedure.summary: Inhibition of self-induced amyloid beta (1 to 42) (unknown origin) aggregation at 20 uM after 72 hrs by thioflavin T assay relative to control
Please enter 1 where inhibition is greater than or equal to 50%, and -1 where it is lower.

Recorded results for 8 molecules are shown here.
Nc1c2c(nc3ccccc13)CC/C(=C\c1ccccc1F)C2=O	-1
Nc1c2c(nc3ccccc13)CC/C(=C\c1cccc3ccccc13)C2=O	-1
O=C1/C(=C/c2ccccc2F)CCc2nc3ccccc3cc21	-1
Nc1c2c(nc3ccccc13)CC/C(=C\c1ccco1)C2=O	-1
C[n+]1c2c(c(N)c3ccccc31)C(=O)/C(=C/c1cccc(Cl)c1)CC2.[I-]	1
C[n+]1c2c(c(N)c3ccccc31)C(=O)/C(=C\c1cccc(F)c1)CC2.[I-]	1
C[n+]1c2c(c(N)c3ccccc31)C(=O)/C(=C/c1cccc([N+](=O)[O-])c1)CC2.[I-]	1
C[n+]1c2c(c(N)c3ccccc31)C(=O)/C(=C\c1cccc3ccccc13)CC2.[I-]	1

For the next question, use this molecule.
Data request: Dear colleague, could you confirm whether COc1ccc(/C=C2\CCc3nc4ccccc4c(N)c3C2=O)cc1 has inhibition at or above 50%?
Data returned: -1

----------
- procedure.summary: Permeability of the compound at 100 ug/ml after 10 hrs by artificial membrane permeability assay
- Format: ADME
- run.conditions: PAMPA; read-out: permeability
Label Yes when Papp at 10 h, 100 ug/ml >= 5 ×10⁻⁶ cm/s; otherwise No.

C[n+]1c2c(c(N)c3ccccc31)C(=O)/C(=C\c1cccc([N+](=O)[O-])c1)CC2.[I-]	No
C[n+]1c2c(c(N)c3ccccc31)C(=O)/C(=C\c1cccc(Cl)c1)CC2.[I-]	No
Nc1c2c(nc3ccccc13)CC/C(=C/c1cccc3ccccc13)C2=O	Yes
Nc1c2c(nc3ccccc13)CC/C(=C\c1ccccc1F)C2=O	Yes

Data request: Is Papp at 10 h, 100 ug/ml at least 5 ×10⁻⁶ cm/s? Consider C[n+]1c2c(c(N)c3ccccc31)C(=O)/C(=C\c1cccs1)CC2.[I-]
Data returned: No

----------
- procedure.summary: Permeability of the compound at 100 ug/ml after 10 hrs by artificial membrane permeability assay
- Assay type: ADME
- run.conditions: PAMPA; read-out: permeability
Record form. Attribute: Papp at 10 h, 100 ug/ml. Fill in for each entry.
Numbers only, in ×10⁻⁶ cm/s.

Use the examples below as a reference point.
Nc1c2c(nc3ccccc13)CC/C(=C/c1cccs1)C2=O	10.8
Nc1c2c(nc3ccccc13)CC/C(=C/c1cccc(F)c1)C2=O	20.3
Nc1c2c(nc3ccccc13)CC/C(=C\c1cccc(F)c1)C2=O	5.3
O=C1/C(=C/c2ccc([N+](=O)[O-])cc2)CCc2nc3ccccc3cc21	3.2
Nc1c2c(nc3ccccc13)CC/C(=C/c1cccc([N+](=O)[O-])c1)C2=O	9.1

Please examine the following record next.
Kindly note the recorded Papp at 10 h, 100 ug/ml for Nc1c2c(nc3ccccc13)CC/C(=C\c1cccc3ccccc13)C2=O , which is 0.5

----------
- Species on record: Homo sapiens
- procedure.summary: Inhibition of recombinant full length tau 0N4R (unknown origin) aggregation expressed in Escherichia coli at 20 uM after 72 hrs by thioflavin S assay relative to control
readout: inhibition (%)
Numbers only, in %.

Reference set, count: 3
C[n+]1c2c(c(N)c3ccccc31)C(=O)/C(=C/c1cccs1)CC2.[I-]	95.3
Nc1c2c(nc3ccccc13)CC/C(=C\c1ccccc1Cl)C2=O	-3.6
Nc1c2c(nc3ccccc13)CC/C(=C\c1cccs1)C2=O	11.9

// next item, inhibition requested
Documented inhibition of Nc1c2c(nc3ccccc13)CCC(Cc1ccccc1)C2=O (centres undefined) : 10

----------
- procedure.summary: Permeability of the compound at 100 ug/ml after 10 hrs by artificial membrane permeability assay
- Format: ADME
- run.conditions: PAMPA; read-out: permeability
Classify by measured Papp at 10 h, 100 ug/ml: class 1 if it is equal to or exceeds 10 ×10⁻⁶ cm/s, class 0 if it is smaller.

Worked examples, 4 compounds total:
Nc1c2c(nc3ccccc13)CC/C(=C\c1ccccc1)C2=O	class 1
COc1ccc(/C=C2\CCc3nc4ccccc4c(N)c3C2=O)cc1	class 1
Nc1c2c(nc3ccccc13)CC/C(=C\c1ccc([N+](=O)[O-])cc1)C2=O	class 1
C[n+]1c2c(c(N)c3ccccc31)C(=O)/C(=C/c1cccc(Cl)c1)CC2.[I-]	class 0

Data request: Could you tell me if the measured Papp at 10 h, 100 ug/ml of Nc1c2c(nc3ccccc13)CC/C(=C\C=C\c1ccccc1)C2=O reaches 10 ×10⁻⁶ cm/s or more?
Data returned: class 0

----------
Field: inhibition. Provide a value for each of the compounds that follow.
- Organism: Homo sapiens
- procedure.summary: Inhibition of recombinant full length tau 0N4R (unknown origin) aggregation expressed in Escherichia coli at 20 uM after 72 hrs by thioflavin S assay relative to control

Nc1c2c(nc3ccccc13)CC/C(=C/c1cccs1)C2=O	5.9%

Please state, for each entry, its recorded inhibition.
1. C[n+]1c2c(c(N)c3ccccc31)C(=O)/C(=C\c1cccc(F)c1)CC2.[I-]
2. C[n+]1c2c(c(N)c3ccccc31)C(=O)/C(=C\c1cccc([N+](=O)[O-])c1)CC2.[I-]
3. Nc1c2c(nc3ccccc13)CC/C(=C\c1ccc([N+](=O)[O-])cc1)C2=O
4. O=C1/C(=C/c2cccc(F)c2)CCc2nc3ccccc3cc21
5. O=C1/C(=C/c2cccc(Cl)c2)CCc2nc3ccccc3cc21

Data returned:
23.3%
32%
-3.3%
14.7%
4.2%

Go through the items and report each one's inhibition.
1. Nc1c2c(nc3ccccc13)CC/C(=C\c1ccc(Cl)cc1)C2=O
2. C[n+]1c2c(c(N)c3ccccc31)C(=O)/C(=C\c1cccs1)CC2.[I-]
3. COc1cccc(/C=C2\CCc3nc4ccccc4c(N)c3C2=O)c1
4. O=C1/C(=C/c2ccccc2Cl)CCc2nc3ccccc3cc21

Data returned:
7.1%
31.6%
44.3%
14.9%

----------
- procedure.summary: Permeability of the compound at 100 ug/ml after 10 hrs by artificial membrane permeability assay
- Format: ADME
- run.conditions: PAMPA; read-out: permeability
readout: Papp at 10 h, 100 ug/ml (×10⁻⁶ cm/s)
One number for each entry, in ×10⁻⁶ cm/s.

O=C1/C(=C/c2cccc(Cl)c2)CCc2nc3ccccc3cc21	2
O=C1/C(=C/c2ccccc2F)CCc2nc3ccccc3cc21	8.3
O=C1/C(=C/c2cccc(F)c2)CCc2nc3ccccc3cc21	17.2
Nc1c2c(nc3ccccc13)CC/C(=C\c1ccco1)C2=O	16.2

Hi, could you look up Papp at 10 h, 100 ug/ml for each item in my list?
1. Nc1c2c(nc3ccccc13)CCC(Cc1ccccc1)C2=O (stereo unspecified)
2. Nc1c2c(nc3ccccc13)CC/C(=C\c1cccs1)C2=O

Data returned:
[13.9, 7.2]

----------
- procedure.summary: Permeability of the compound at 100 ug/ml after 10 hrs by artificial membrane permeability assay
- Format: ADME
- run.conditions: PAMPA; read-out: permeability
Criterion met if Papp at 10 h, 100 ug/ml is below 7 ×10⁻⁶ cm/s. Criterion not met if not; exact matches included in Criterion not met.

Would you please look over these solved cases?
C[n+]1c2c(c(N)c3ccccc31)C(=O)/C(=C/c1cccc(F)c1)CC2.[I-]	Criterion met
C[n+]1c2c(c(N)c3ccccc31)C(=O)/C(=C/c1cccs1)CC2.[I-]	Criterion met
COc1cccc(/C=C2\CCc3nc4ccccc4c(N)c3C2=O)c1	Criterion not met
C[n+]1c2c(c(N)c3ccccc31)C(=O)/C(=C/c1cccc([N+](=O)[O-])c1)CC2.[I-]	Criterion met
Nc1c2c(nc3ccccc13)CC/C(=C\c1ccc(Cl)cc1)C2=O	Criterion not met

Data request: Quick check: does Nc1c2c(nc3ccccc13)CC/C(=C\c1ccccc1Cl)C2=O have Papp at 10 h, 100 ug/ml under 7 ×10⁻⁶ cm/s?
Data returned: Criterion not met

Data request: Take the compound C[n+]1c2c(c(N)c3ccccc31)C(=O)/C(=C/c1ccccc1)CC2.[I-] and say whether its Papp at 10 h, 100 ug/ml is less than 7 ×10⁻⁶ cm/s.
Data returned: Criterion met

Data request: I'd appreciate it if you could check whether Nc1c2c(nc3ccccc13)CC/C(=C/c1cccc(Cl)c1)C2=O has Papp at 10 h, 100 ug/ml smaller than 7 ×10⁻⁶ cm/s.
Data returned: Criterion not met

----------
- procedure.summary: Binding affinity to recombinant full length tau 0N4R (unknown origin) expressed in Escherichia coli by surface plasmon resonance assay
- Parameters: species or system Homo sapiens
Consider the following compounds; for each one, report its Kd.
Answers are plain numbers, in µM.

CN(C)c1ccc2nc3ccc(N(C)C)cc3[s+]c2c1 [METHYLENE BLUE ANHYDROUS]	28.2

For the next question, use this compound.
For C[n+]1c2c(c(N)c3ccccc31)C(=O)/C(=C/c1cccc3ccccc13)CC2.[I-] the compound record lists Kd as 33.7
